# System: MCF7
# experiment-summary: Cytotoxicity against human MCF7 cells after 24 hrs by MTT assay
# Format: functional, cell-based
# condition-info: MCF7, 24 h
pIC50: −log10 of the molar value.
Below, each entry is listed alongside its reported pIC50.

Lookup: Sample COc1cc2c(c(OC)c1OC)C(c1ccccc1)CC2=O (stereo unspecified) — what was its pIC50?
Found: ≤ 3.60

Lookup: // repeat for COc1ccc(C2CC(=O)c3cc(OC)c(OC)c(OC)c32)c(OC)c1OC (stereo unspecified) and report
Found: ≤ 3.60

Lookup: COc1cc(C2=C(O)C(=O)c3cc(OC)c(OC)c(OC)c32)cc(OC)c1OC , same question.
Found: ≤ 3.60

Lookup: Same lookup for COc1cc2c(c(OC)c1OC)-c1c(oc3c(OC)c(OC)c(OC)cc13)C2=O , please.
Found: 4.30

Lookup: Now consider COc1cc(C2CC(=O)c3cc(OC)c(OC)c(OC)c32)cc(OC)c1OC (stereo unspecified) .
Found: 5.66

Lookup: COc1cc2c(cc1OC)C(c1cc(OC)c(OC)c(OC)c1)CC2=O (stereo unspecified) , same question.
Found: ≤ 3.60

###

# Tested on: MCF7
# experiment-summary: Cytotoxicity against human MCF7 cells after 24 hrs by MTT assay
# Assay type: functional, cell-based
# condition-info: MCF7, 24 h
Overview of reported IC50 across a group of molecules:
Record the value in µM, omitting the unit from your answer.

Solved entries:
molecule	observed-property	value
CC(=O)O[C@H]1C(=O)[C@@]2(C)[C@H]([C@H](OC(=O)c3ccccc3)[C@]3(O)C[C@H](OC(=O)[C@H](O)[C@@H](NC(=O)c4ccccc4)c4ccccc4)C(C)=C1C3(C)C)[C@]1(OC(C)=O)CO[C@@H]1C[C@@H]2O	IC50	0.006
COc1cc(C2CC(O)c3cc(OC)c(OC)c(OC)c32)cc(OC)c1OC (configuration not stated)	IC50	244
COc1cc(OC)c(C2CC(=O)c3cc(OC)c(OC)c(OC)c32)c(OC)c1 (configuration not stated)	IC50	211

Continue with the molecule presented below.
Lookup: # input molecule: COc1cc([C@@H]2c3cc4c(cc3[C@H](O)[C@H]3COC(=O)[C@H]23)OCO4)cc(OC)c1OC ; wanted: its IC50
Found: 8.5

###

# Test system: MCF7
# experiment-summary: Cytotoxicity against human MCF7 cells after 24 hrs by MTT assay
# Assay type: functional, cell-based
# condition-info: MCF7, 24 h
observed-property: IC50

Example cases with answers are listed next.
>>> df
                                   molecule  study_target     value
0  COc1cc(C2C/C(=N\O)c3cc(OC)c(OC)c(OC)c32)cc(OC)c1OC (stereo not drawn)          MCF7  ≥ 250 µM
1  COc1cc(C2CCc3cc(OC)c(OC)c(OC)c32)cc(OC)c1OC (stereo not drawn)          MCF7  ≥ 250 µM

Lookup: Entry COc1cccc(C2CC(=O)c3cc(OC)c(OC)c(OC)c32)c1 (stereo not drawn) : reported IC50 = ?
Found: ≥ 250 µM
